- TGT: FZD8 (Homo sapiens)
- Construct: purchased Promega (in-house HiBiT-GPCR construct library, NanoBRET)
- Sequence (Q9H461 28-694): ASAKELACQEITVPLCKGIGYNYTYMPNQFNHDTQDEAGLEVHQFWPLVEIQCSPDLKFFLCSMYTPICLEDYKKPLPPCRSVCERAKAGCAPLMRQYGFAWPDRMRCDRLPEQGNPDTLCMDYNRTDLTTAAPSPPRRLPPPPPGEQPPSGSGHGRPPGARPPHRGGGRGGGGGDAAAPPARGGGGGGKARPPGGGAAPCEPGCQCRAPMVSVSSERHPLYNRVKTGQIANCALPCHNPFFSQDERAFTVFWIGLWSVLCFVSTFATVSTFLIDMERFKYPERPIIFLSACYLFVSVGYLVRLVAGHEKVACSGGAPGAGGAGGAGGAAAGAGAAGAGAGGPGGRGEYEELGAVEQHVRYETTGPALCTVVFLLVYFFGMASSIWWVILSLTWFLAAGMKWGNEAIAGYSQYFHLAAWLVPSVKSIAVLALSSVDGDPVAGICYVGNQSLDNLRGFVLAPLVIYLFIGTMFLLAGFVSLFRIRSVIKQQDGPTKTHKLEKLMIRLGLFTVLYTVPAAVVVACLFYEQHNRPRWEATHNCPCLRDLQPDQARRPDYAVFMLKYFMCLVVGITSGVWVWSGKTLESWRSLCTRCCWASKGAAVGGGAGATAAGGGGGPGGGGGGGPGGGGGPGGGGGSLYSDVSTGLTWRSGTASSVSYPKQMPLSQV
- TEST_DESCRIPTION: NanoBRET screen HiBiT-FZD8 in HEK293
- Assay type: binding
- CONDITION_SUMMARY: FZD8; tracer 0.1μM

[
  {
    "COMPOUND": "Cc1nc2n(c(=O)c1CCN1CCC(c3noc4cc(F)ccc34)CC1)CCCC2OC(=O)NCCOCCOCCOCCOCCNC(=O)CCc1ccc2n1[B-](F)(F)[N+]1=C(c3ccc[nH]3)C=CC1=C2 (stereo not drawn) [Risperidone-2-NB590]",
    "NanoBRET Fold Response": 1.02
  },
  {
    "COMPOUND": "CC(C)N(CC[C@H](c1ccccc1)c1cc(CCNC(=O)CCOCCOCCOCCOCCNC(=O)CCc2ccc3n2[B-](F)(F)[N+]2=C(c4ccc[nH]4)C=CC2=C3)ccc1O)C(C)C [Tolterodine-2-NB590]",
    "NanoBRET Fold Response": 1.07
  },
  {
    "COMPOUND": "CC(C)N(CC[C@H](c1ccccc1)c1cc(CCNC(=O)c2ccc(CNC(=O)CCc3ccc4n3[B-](F)(F)[N+]3=C(c5ccc[nH]5)C=CC3=C4)cc2)ccc1O)C(C)C [Tolterodine-BZ-NB590]",
    "NanoBRET Fold Response": 1.00
  }
]
